pIC50: −log10 of the molar value.
Here's a batch of molecules along with measured pIC50 for bacterial β-glucuronidase (E. coli GUS) (Escherichia coli).
assay-endpoint: pIC50

molecule | endpoint-result
Oc1ccc2c(c1)Oc1ccc(Cl)cc1C(N1CCNCC1)=N2 [7-OHAMOX, 7-hydroxyamoxapine] | 6.01
Oc1ccc2c(c1)N=C(N1CCNCC1)c1cc(Cl)ccc1O2 [8-OHAMOX, 8-hydroxyamoxapine] | 5.70
